Origin of measurements: ChEMBL document CHEMBL4177741

EXPERIMENTAL SYSTEM: Beta-lactamase NDM-1 (Escherichia coli)
Sequence (E5KIY2 whole entry): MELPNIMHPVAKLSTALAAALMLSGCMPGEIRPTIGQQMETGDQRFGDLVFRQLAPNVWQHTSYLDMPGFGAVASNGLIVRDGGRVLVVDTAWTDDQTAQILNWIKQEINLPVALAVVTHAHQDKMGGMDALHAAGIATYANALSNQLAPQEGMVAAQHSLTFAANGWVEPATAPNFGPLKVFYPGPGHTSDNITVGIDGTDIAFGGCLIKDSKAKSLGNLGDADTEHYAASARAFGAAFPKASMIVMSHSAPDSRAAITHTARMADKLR
OUTCOME MEASURE: pKi
The quantity pKi is defined as the negative base-10 logarithm of the molar concentration.

## Input Return pKi for the following compound: O=C(O)CN1CCN(CC(=O)O)CCN(CC(=O)O)CC1
## Output 5.29

###

EXPERIMENTAL SYSTEM: Beta-lactamase NDM-1 (Escherichia coli)
OUTCOME MEASURE: pIC50
The quantity pIC50 is defined as the negative base-10 logarithm of the molar concentration.

## Input State the measured pIC50 (Beta-lactamase NDM-1 (Escherichia coli)) of O=C(O)CN1CCN(CC(=O)O)CCN(CC(=O)O)CC1
## Output 6.96

###

PROCEDURE TEXT: Cytotoxicity in human HeLa cells assessed as inhibition of cell growth at 1000 ug/ml incubated for 24 hrs by CCK8 assay
Type: cell-based
STATED CONDITIONS: read-out: GI
OUTCOME MEASURE: inhibition at 24 h, 1000 ug/ml (%)
The reply should be a number in %, with the unit left off.

## Input Return inhibition at 24 h, 1000 ug/ml for the following compound: S=C([S-])N1CCN(C(=S)[S-])CCN(C(=S)[S-])CC1.[Na+].[Na+].[Na+]
## Output 20
